Taken from patent US11661422B2.

Molecular target: pseudo-kinase domain (JH2, amino-acids 536-812) of human V617F mutant JAK2 (Homo sapiens (Human), UniProt O60674, F794H/V617F/W659A/W777A)
Sequence (O60674 536-812 V617F/W659A/W777A/F794H): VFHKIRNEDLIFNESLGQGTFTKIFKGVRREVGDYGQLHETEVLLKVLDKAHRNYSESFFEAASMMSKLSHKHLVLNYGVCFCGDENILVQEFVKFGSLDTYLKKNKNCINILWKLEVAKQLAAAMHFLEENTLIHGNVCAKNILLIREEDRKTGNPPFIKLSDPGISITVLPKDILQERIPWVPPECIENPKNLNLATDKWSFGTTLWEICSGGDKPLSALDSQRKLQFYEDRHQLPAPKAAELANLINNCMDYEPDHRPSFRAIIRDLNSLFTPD
Experiment: JAK2 LanthaScreen JH2-V617F Binding Assay
Conditions: JAK2 JH2-V617F 0.26 nM, 50 nM fluorescent tracer, 1 hour at 25° C.; read-out: JH2 BIND V617F IC50
Where a name gives a salt, the structure may show the parent alone.
measured attribute: IC50

Recorded IC50, per entry:
Query: Report IC50, nothing else, for this compound: COc1ccc(-c2c(C3CC3)[nH]c3ncc4c(c23)CN(c2ccc(C(=O)O)cc2)C(=O)N4C)cc1
Reply: 100 to 500 nM

Query: Determine from records and report IC50 for CNS(=O)(=O)c1ccc(-c2c(-c3ccc(CN4CCC(S(C)(=O)=O)CC4)cc3)[nH]c3ncc4c(c23)CN(C(C)(C)C)C(=O)N4C)cc1 [Example 17, trifluoroacetic acid salt]
Reply: ≤ 100 nM

Query: Provide measured IC50 value, entry: CN1C(=O)N(c2ccc(NC(=O)CC#N)cc2)Cc2c1cnc1[nH]c(-c3ccc(CN4CCC(S(C)(=O)=O)CC4)cc3)cc21
Reply: 100 to 500 nM

Next:
Query: Output IC50 of CC(=O)N1CCN(c2ccc(-c3c(-c4ccc(CN5CCC(S(C)(=O)=O)CC5)cc4)[nH]c4ncc5c(c34)CN(C(C)(C)C)C(=O)N5C)cc2)CC1 [Example 18, trifluoroacetic acid salt]
Reply: ≤ 100 nM
